# MEASURED TARGET: T1, Human BSSL (bile salt-stimulated lipase), native (human, UniProt P19835 21-753)
# T1 construct: Native full-length protein purified from human milk (Astra Hässle AB); also called hBSSL; non-biotinylated human BSSL
# T1 sequence: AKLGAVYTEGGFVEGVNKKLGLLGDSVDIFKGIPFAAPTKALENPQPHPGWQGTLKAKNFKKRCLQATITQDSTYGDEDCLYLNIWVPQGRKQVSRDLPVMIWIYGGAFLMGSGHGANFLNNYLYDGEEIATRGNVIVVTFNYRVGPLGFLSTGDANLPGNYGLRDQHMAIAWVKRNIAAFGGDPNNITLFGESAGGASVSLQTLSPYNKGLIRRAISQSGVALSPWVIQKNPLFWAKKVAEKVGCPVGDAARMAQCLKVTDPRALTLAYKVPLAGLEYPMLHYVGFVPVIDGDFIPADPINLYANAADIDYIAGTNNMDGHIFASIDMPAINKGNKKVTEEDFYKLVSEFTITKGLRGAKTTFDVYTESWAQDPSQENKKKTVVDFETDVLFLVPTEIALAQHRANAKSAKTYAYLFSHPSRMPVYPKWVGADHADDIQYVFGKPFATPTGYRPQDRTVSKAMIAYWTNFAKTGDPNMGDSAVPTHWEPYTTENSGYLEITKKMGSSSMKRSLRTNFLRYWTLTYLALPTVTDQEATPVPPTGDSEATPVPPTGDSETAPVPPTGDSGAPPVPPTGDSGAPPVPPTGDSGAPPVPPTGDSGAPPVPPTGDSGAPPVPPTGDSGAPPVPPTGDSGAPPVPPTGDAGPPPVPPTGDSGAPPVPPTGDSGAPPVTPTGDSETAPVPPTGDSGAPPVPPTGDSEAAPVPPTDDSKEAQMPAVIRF
# ASSAY OVERVIEW: SPR single cycle kinetics, hIgG4 S228P captured by anti-Fab
As shown below, each of these binders has a reported Kd value.
MEASURED QUANTITY: Kd (nM)

BINDER	UNIT OF MEASUREMENT	RESULT
S-SL048-115 hIgG4 S228P (antibody, V domains shown, Tested as human IgG4 S228P) VH: QVQLVQSGAEVKKPGASVKVSCKASGYTFTSYNMHWVRQAPGQGLEWMGVINPSDGATSYAQKFKGRVTMTRDTSTSTVYMELSSLRSEDTAVYYCARDYYGSSPLGYWGQGTLVTVSS VL: DIQMTQSPSSLSASVGDRVTITCRASQSISYMHWYQQKPGKAPKLLIYAASKLPSGVPSRFSGSGSGTDFTLTISSLQPEDFATYYCHQRSSSPTFGQGTKLEIK	nM	6
S-SL048-18 hIgG4 S228P (antibody, V domains shown, Tested as human IgG4 S228P) VH: QVQLVQSGAEVKKPGASVKVSCKASGYTFTSYNMHWVRQAPGQGLEWMGVINPSDGATSYTQKFKGRVTMTRDTSTSTVYMELSSLRSEDTAVYYCARDYYGSSPLGYWGQGTLVTVSS VL: DIQMTQSPSSLSASVGDRVTITCRASSSISYLNWYQQKPGKAPKLLIYATSRLQSGVPSRFSGSGSGTDFTLTISSLQPEDFATYYCHQRSSTPTFGQGTKLEIK	nM	2.3
